All values here come from patent US12421254B2.

# testedSystem: GST-tagged KRAS-G12D (2-169) (Homo sapiens, UniProt P01116, G12D)
# Sequence (P01116 2-169 isoform P01116-2 G12D): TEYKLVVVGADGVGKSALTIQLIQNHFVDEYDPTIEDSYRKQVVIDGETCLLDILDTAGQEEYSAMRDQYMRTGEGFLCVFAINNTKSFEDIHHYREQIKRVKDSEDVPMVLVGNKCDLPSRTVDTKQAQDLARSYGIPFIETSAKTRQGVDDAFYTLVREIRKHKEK
# procedureDetails: Nucleotide exchange assay (NEA), SOS-mediated, HTRF, KRAS G12D
# Type: biochemical
# conditionParameters: Table 4; IC50 extracted at 30 min; 20 nM SOScat; read-out: NEA G12D IC50
pIC50: −log10 of the molar value.
outcomeMeasure: pIC50

Would you please look over these solved cases?
{"compound": "CC1(O)CCCN(c2nc(OCC34CCCN3C(COc3cc(C(F)(F)F)ncn3)CC4)nc(N3CC4(C3)SCc3sc(N)c(C#N)c34)n2)C1 (single isomer, unassigned) [Compound 256A]", "testedSystem": "GST-tagged KRAS-G12D (2-169) (Homo sapiens, UniProt P01116, G12D)", "pIC50": "> 8.00"}
{"compound": "N#Cc1c(N)sc2c1C1(CN(c3nc(OC[C@@]45CCCN4C[C@H](F)C5)nc(N4C5CSCC4C5)n3)C1)SC2 [Compound 269]", "testedSystem": "GST-tagged KRAS-G12D (2-169) (Homo sapiens, UniProt P01116, G12D)", "pIC50": "6.00 to 7.00"}
{"compound": "C[C@@]1(O)C[C@H](F)CN(c2nc(OC[C@@]34CCCN3C[C@H](F)C4)nc(N3CC4(C3)SCc3sc(N)c(C#N)c34)n2)C1 [Compound 143]", "testedSystem": "GST-tagged KRAS-G12D (2-169) (Homo sapiens, UniProt P01116, G12D)", "pIC50": "> 8.00"}

Please supply pIC50 for each of the following items, keeping them in order.
1. CCN(c1nc(OC[C@]2(C(F)F)CCCN2)nc(N2CC3(C2)SCc2sc(N)c(C#N)c23)n1)[C@H](C)c1cccnc1N [Compound 221]
2. C[C@@]1(O)CCCN(c2nc(OCC3(CN4CCOCC4)CC3)nc(N3CC4(C3)SCc3sc(N)c(C#N)c34)n2)C1 [Compound 73]
3. C[C@H](c1cccnc1N)N(CC#N)c1nc(OC[C@@]23CCCN2C[C@H](F)C3)nc(N2CC3(C2)SCc2sc(N)c(C#N)c23)n1 [Compound 246]

1: > 8.00; 2: > 8.00; 3: > 8.00

====

# testedSystem: GST-tagged KRAS-G12D (2-169) (Homo sapiens, UniProt P01116, G12D)
# procedureDetails: Nucleotide exchange assay (NEA), SOS-mediated, HTRF, KRAS G12D
# Assay type: biochemical
# conditionParameters: Table 4; IC50 extracted at 30 min; 20 nM SOScat; read-out: NEA G12D IC50
outcomeMeasure: IC50

{"compound": "N#Cc1c(N)sc2c1C1(CC2)CCN(c2nc(OCC3(CN4CCOCC4)CC3)nc(N3C[C@H]4CC[C@@H](C3)N4)n2)C1 (stereo partly drawn)", "outcomeMeasure": "IC50", "recordedValue": "< 10 nM"}

Please supply IC50 for each of the following items, keeping them in order.
1. CC(c1nsnc1N)N(C)c1nc(OC[C@@]23CCCN2C[C@H](F)C3)nc(N2CC3(C2)SCc2sc(N)c(C#N)c23)n1 (stereo partly drawn) [Compound 174]
2. N#Cc1c(N)sc2c1C1(CN(c3nc(OC[C@@]45CCCN4C[C@H](F)C5)nc(N4[C@H]5CC[C@@H]4[C@H](C#N)C5)n3)C1)SC2 (racemic)
3. CC(c1cccnc1N)N(CCO)c1nc(OC[C@@]23CCCN2C[C@H](F)C3)nc(N2CC3(CCc4sc(N)c(C#N)c43)C2)n1 (stereo partly drawn) [Compound 110]
4. CCN(c1nc(OCC2(CN(C)C)CC2(F)F)nc(N2CC3(C2)SCc2sc(N)c(C#N)c23)n1)[C@H](C)c1cccnc1N (stereo partly drawn)
5. CN(c1nc(OC[C@@]23CCCN2C[C@H](F)C3)nc(N2CC3(C2)SCc2sc(N)c(C#N)c23)n1)[C@H]1[C@H]2CN[C@@H]1C2

< 10 nM
100 to 1000 nM
< 10 nM
< 10 nM
< 10 nM
